Quick list: GI50 per entry.
Tested on: NCI-H2170 HER2 YVMA cells
protocol.details: Tumor cell line proliferation assay, NCI-H2170 HER2 YVMA, CellTiter-Glo
Assay type: cell-based
assay.conditions: Homo sapiens, 72 h, read-out: GI50 NCI H-2170 HER2 YVMA

{"columns": ["molecule", "unit.abbrev", "GI50"],
 "data": [
  ["C=CC(=O)NC1(C)CCN(c2ncc3ncnc(Nc4ccc(Oc5ccc6c(c5)ncn6C)c(OC)c4)c3n2)CC1", "µM", 0.099],
  ["C=CC(=O)Nc1ccc2ncnc(Nc3ccc(Oc4ccc5c(c4)ncn5C)c(C)c3)c2c1 [WO 2007/059257 Ex. 185, reference compound]", "µM", 0.926],
  ["C#Cc1cc(Nc2ncnc3cnc(N4CCC(NC(=O)C=C)CC4)nc23)ccc1Oc1ccc2c(c1)ncn2C", "µM", 0.228],
  ["C=CC(=O)NC1CCN(c2ncc3ncnc(Nc4ccc(Oc5ccc6c(c5)ncn6C)c(C)c4)c3n2)CC1", "µM", 0.033],
  ["C=CC(=O)N1CCC(Nc2ncc3ncnc(Nc4ccc(Oc5ccn6ncnc6c5)c(C)c4)c3n2)CC1", "µM", 0.019],
  ["C=CC(=O)NC1CCN(c2ncc3ncnc(Nc4cc(F)c(Oc5ccn6ncnc6c5)c(Cl)c4)c3n2)CC1", "µM", 0.215],
  ["C=CC(=O)N1CC[C@@H](Nc2ncc3ncnc(Nc4ccc(Oc5ccn6ncnc6c5)c(C)c4)c3n2)C1", "µM", 0.087],
  ["C=CC(=O)NC1CN(c2ncc3ncnc(Nc4ccc(Oc5ccc6c(c5)ncn6C)c(C)c4)c3n2)C1", "µM", 0.073],
  ["C=CC(=O)NC1CCN(c2ncc3ncnc(Nc4ccc(Oc5ccn6ccnc6c5)c(C)c4)c3n2)CC1", "µM", 0.071],
  ["C=CC(=O)N1CC[C@H](Nc2ncc3ncnc(Nc4ccc(Oc5ccn6ncnc6c5)c(C)c4)c3n2)C1", "µM", 0.039],
  ["C=CC(=O)NC1CN(c2ncc3ncnc(Nc4ccc(Oc5cnc6c(c5)ncn6C)c(C)c4)c3n2)C1", "µM", 0.082],
  ["C=CC(=O)N1CC(Nc2ncc3ncnc(Nc4ccc(Oc5ccn6ncnc6c5)c(C)c4)c3n2)C1", "µM", 0.034]
]}

----------
target.or.test.system: EGFR wild type (WT) (Homo sapiens)
Sequence (P00533 25-1210): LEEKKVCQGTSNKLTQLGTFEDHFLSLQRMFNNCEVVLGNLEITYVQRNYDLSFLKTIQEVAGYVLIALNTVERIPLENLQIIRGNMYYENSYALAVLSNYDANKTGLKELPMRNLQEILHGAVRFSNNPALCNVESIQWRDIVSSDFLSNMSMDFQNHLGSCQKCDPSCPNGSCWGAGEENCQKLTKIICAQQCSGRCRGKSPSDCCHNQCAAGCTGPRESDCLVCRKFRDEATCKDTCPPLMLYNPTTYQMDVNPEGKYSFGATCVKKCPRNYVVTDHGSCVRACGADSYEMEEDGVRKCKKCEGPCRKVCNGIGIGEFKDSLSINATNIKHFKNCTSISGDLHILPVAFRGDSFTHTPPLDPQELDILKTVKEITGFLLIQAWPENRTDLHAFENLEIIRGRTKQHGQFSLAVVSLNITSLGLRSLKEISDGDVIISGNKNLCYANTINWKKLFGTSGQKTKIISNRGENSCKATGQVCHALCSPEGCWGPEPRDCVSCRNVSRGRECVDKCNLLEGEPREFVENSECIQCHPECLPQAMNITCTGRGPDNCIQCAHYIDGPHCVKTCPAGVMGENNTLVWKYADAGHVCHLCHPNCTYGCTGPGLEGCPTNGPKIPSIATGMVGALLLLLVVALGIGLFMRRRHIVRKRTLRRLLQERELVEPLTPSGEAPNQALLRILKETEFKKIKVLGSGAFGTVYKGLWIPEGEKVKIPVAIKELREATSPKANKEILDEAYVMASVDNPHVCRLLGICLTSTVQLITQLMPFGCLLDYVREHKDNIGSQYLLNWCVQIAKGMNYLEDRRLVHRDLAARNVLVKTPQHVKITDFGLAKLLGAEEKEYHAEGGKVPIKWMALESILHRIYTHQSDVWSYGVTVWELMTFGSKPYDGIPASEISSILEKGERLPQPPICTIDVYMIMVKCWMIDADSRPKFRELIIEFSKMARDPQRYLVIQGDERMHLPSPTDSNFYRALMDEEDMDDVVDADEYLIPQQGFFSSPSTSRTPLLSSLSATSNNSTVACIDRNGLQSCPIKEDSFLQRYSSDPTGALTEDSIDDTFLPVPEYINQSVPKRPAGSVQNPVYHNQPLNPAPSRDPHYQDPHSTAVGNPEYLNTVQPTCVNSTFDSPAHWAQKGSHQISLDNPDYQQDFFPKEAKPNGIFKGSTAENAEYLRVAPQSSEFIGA
protocol.details: pEGFR assay: phosphorylation of EGFR at Tyr1068 in HEK cells expressing EGFR WT (AlphaScreen Surefire)
assay.conditions: 4 h with compound
pIC50: −log10 of the molar value.
Quick list: pIC50 per entry.
value.kind: pIC50

{"columns": ["compound", "target.or.test.system", "value.kind", "result"],
 "data": [
  ["C=CC(=O)Nc1ccc2ncnc(Nc3ccc(OCc4cccc(F)c4)c(Cl)c3)c2c1 [Allitinib, reference compound]", "EGFR wild type (WT) (Homo sapiens)", "pIC50", 9.00],
  ["C#Cc1cc(Nc2ncnc3cnc(N4CC(NC(=O)C=C)C4)nc23)ccc1Oc1ccn2ncnc2c1 [Example I-10]", "EGFR wild type (WT) (Homo sapiens)", "pIC50", 6.66],
  ["Cc1cc(Nc2ncnc3ccc(NC4=NC(C)(C)CO4)cc23)ccc1Oc1ccn2ncnc2c1 [Tucatinib, reference compound]", "EGFR wild type (WT) (Homo sapiens)", "pIC50", 5.85],
  ["C=CC(=O)NC1CN(c2ncc3ncnc(Nc4ccc(Oc5ccc6c(c5)ncn6C)c(Cl)c4)c3n2)C1 [Example I-08]", "EGFR wild type (WT) (Homo sapiens)", "pIC50", 6.47],
  ["C=CC(=O)NC1CCN(c2ncc3ncnc(Nc4ccc(Oc5ccn6ccnc6c5)c(C)c4)c3n2)CC1 [Example I-12]", "EGFR wild type (WT) (Homo sapiens)", "pIC50", 6.64],
  ["C=CC(=O)NC1CCN(c2ncc3ncnc(Nc4cc(F)c(Oc5ccn6ncnc6c5)c(Cl)c4)c3n2)CC1 [Example I-06]", "EGFR wild type (WT) (Homo sapiens)", "pIC50", 6.11],
  ["C=CC(=O)N1CC[C@@H](Nc2ncc3ncnc(Nc4ccc(Oc5ccn6ncnc6c5)c(C)c4)c3n2)C1 [Example I-18]", "EGFR wild type (WT) (Homo sapiens)", "pIC50", 6.86],
  ["C=CC(=O)N1CC[C@H](Nc2ncc3ncnc(Nc4ccc(Oc5ccn6ncnc6c5)c(C)c4)c3n2)C1 [Example I-17]", "EGFR wild type (WT) (Homo sapiens)", "pIC50", 7.03],
  ["C=CC(=O)N1CCC(Nc2ncc3ncnc(Nc4ccc(Oc5ccc6c(c5)ncn6C)c(C)c4)c3n2)CC1 [Example I-14]", "EGFR wild type (WT) (Homo sapiens)", "pIC50", 7.14],
  ["C=CC(=O)NC1CCN(c2ncc3ncnc(Nc4ccc(Oc5ccc6c(c5)ncn6C)c(OC)c4)c3n2)CC1 [Example I-03]", "EGFR wild type (WT) (Homo sapiens)", "pIC50", 6.04],
  ["C#Cc1cc(Nc2ncnc3cnc(NC4CCN(C(=O)C=C)CC4)nc23)ccc1Oc1ccc2c(c1)ncn2C [Example I-15]", "EGFR wild type (WT) (Homo sapiens)", "pIC50", 7.07],
  ["C=CC(=O)NC1(C)CCN(c2ncc3ncnc(Nc4ccc(Oc5ccc6c(c5)ncn6C)c(OC)c4)c3n2)CC1 [Example I-04]", "EGFR wild type (WT) (Homo sapiens)", "pIC50", 6.31],
  ["C=CC(=O)NC1CN(c2ncc3ncnc(Nc4ccc(Oc5ccn6ncnc6c5)c(C)c4)c3n2)C1 [Example I-09]", "EGFR wild type (WT) (Homo sapiens)", "pIC50", 6.15],
  ["C=CC(=O)NC1CCN(c2ncc3ncnc(Nc4ccc(Oc5ccn6ncnc6c5)c(C)c4)c3n2)CC1 [Example I-11]", "EGFR wild type (WT) (Homo sapiens)", "pIC50", 6.28],
  ["C#Cc1cc(Nc2ncnc3cnc(N4CCC(NC(=O)C=C)CC4)nc23)ccc1Oc1ccc2c(c1)ncn2C [Example I-02]", "EGFR wild type (WT) (Homo sapiens)", "pIC50", 6.20]
]}

----------
System: NCI-H2170 HER2 YVMA cells
protocol.details: Tumor cell line proliferation assay, NCI-H2170 HER2 YVMA, CellTiter-Glo
Assay type: cell-based
assay.conditions: Homo sapiens, 72 h, read-out: GI50 NCI H-2170 HER2 YVMA
Please respond with condition met when measured GI50 is strictly beneath 80 nM, and with condition not met in all other cases.

{"columns": ["molecule", "answer.label"],
 "data": [
  ["C#Cc1cc(Nc2ncnc3cnc(N4CC(NC(=O)C=C)C4)nc23)ccc1Oc1ccn2ncnc2c1 [Example I-10]", "condition not met"],
  ["C=CC(=O)NC1CCN(c2ncc3ncnc(Nc4ccc(Oc5ccc6c(c5)ncn6C)c(OC)c4)c3n2)CC1 [Example I-03]", "condition not met"],
  ["C=CC(=O)NC1CN(c2ncc3ncnc(Nc4ccc(Oc5ccn6ncnc6c5)c(C)c4)c3n2)C1 [Example I-09]", "condition met"],
  ["C#Cc1cc(Nc2ncnc3cnc(NC4CCN(C(=O)C=C)CC4)nc23)ccc1Oc1ccc2c(c1)ncn2C [Example I-15]", "condition met"],
  ["C=CC(=O)Nc1cccc(-n2c(=O)c(Oc3ccc(F)cc3F)cc3cnc(Nc4cnn(C)c4)nc32)c1 [WO 2019/046775 Comp. 2, reference compound]", "condition met"],
  ["C=CC(=O)NC1CCN(c2ncc3ncnc(Nc4ccc(Oc5ccc6c(c5)ncn6C)c(Cl)c4)c3n2)CC1 [Example I-05]", "condition met"],
  ["C=CC(=O)NC1CN(c2ncc3ncnc(Nc4ccc(Oc5ccc6c(c5)ncn6C)c(Cl)c4)c3n2)C1 [Example I-08]", "condition met"],
  ["C=CC(=O)N1CCC[C@@H](n2nc(-c3ccc(Oc4ccccc4)cc3)c3c(N)ncnc32)C1 [Ibrutinib, reference compound]", "condition not met"],
  ["CCOc1cc2ncc(C#N)c(Nc3ccc(OCc4ccccn4)c(Cl)c3)c2cc1NC(=O)/C=C/CN(C)C [Neratinib, reference compound]", "condition met"],
  ["C=CC(=O)NC1CCN(c2ncc3ncnc(Nc4ccc(Oc5ccn6ncnc6c5)c(C)c4)c3n2)CC1 [Example I-11]", "condition not met"],
  ["Cc1cc(Nc2ncnc3ccc(NC4=NC(C)(C)CO4)cc23)ccc1Oc1ccn2ncnc2c1 [Tucatinib, reference compound]", "condition not met"],
  ["C=CC(=O)N1CCC(Nc2ncc3ncnc(Nc4ccc(Oc5ccc6c(c5)ncn6C)c(C)c4)c3n2)CC1 [Example I-14]", "condition met"],
  ["C=CC(=O)Nc1ccc2ncnc(Nc3ccc(OCc4cccc(F)c4)c(Cl)c3)c2c1 [Allitinib, reference compound]", "condition not met"],
  ["C=CC(=O)N1CCC(Oc2cc3c(Nc4ccc(Cl)c(Cl)c4F)ncnc3cc2OC)CC1 [Poziotinib, reference compound]", "condition met"]
]}

----------
target.or.test.system: EGFR wild type (WT) (Homo sapiens)
protocol.details: pEGFR assay: phosphorylation of EGFR at Tyr1068 in HEK cells expressing EGFR WT (AlphaScreen Surefire)
assay.conditions: 4 h with compound
pIC50: −log10 of the molar value.
Quick list: pIC50 per entry.

{"columns": ["compound", "pIC50"],
 "data": [
  ["C=CC(=O)N1CC(Nc2ncc3ncnc(Nc4ccc(Oc5ccn6ncnc6c5)c(C)c4)c3n2)C1", 7.39],
  ["C=CC(=O)N1CCC(Nc2ncc3ncnc(Nc4ccc(Oc5ccn6ncnc6c5)c(C)c4)c3n2)CC1", 7.64],
  ["C=CC(=O)Nc1ccc2ncnc(Nc3ccc(Oc4ccc5c(c4)ncn5C)c(C)c3)c2c1 [WO 2007/059257 Ex. 185, reference compound]", 6.50],
  ["C=CC(=O)NC1CN(c2ncc3ncnc(Nc4ccc(Oc5cnc6c(c5)ncn6C)c(C)c4)c3n2)C1", 6.37],
  ["C=CC(=O)Nc1cccc(-n2c(=O)c(Oc3ccc(F)cc3F)cc3cnc(Nc4cnn(C)c4)nc32)c1 [WO 2019/046775 Comp. 2, reference compound]", 8.15],
  ["C=CC(=O)NC1CN(c2ncc3ncnc(Nc4ccc(Oc5ccc6c(c5)ncn6C)c(C)c4)c3n2)C1", 5.93],
  ["C=CC(=O)NC1CCN(c2ncc3ncnc(Nc4ccc(Oc5ccc6c(c5)ncn6C)c(Cl)c4)c3n2)CC1", 6.50]
]}
